Kindly supply the reported IC50 at 72 h values for the records listed here.
# procedureText: in vitro
# experimentalSetup: human, MCF-10A cells

Exam item: Look up IC50 at 72 h: Cc1ncsc1-c1ccc(CNC(=O)[C@@H]2C[C@@H](O)CN2C(=O)[C@@H](NC(=O)CCCCCOc2ccc(N(CC(F)(F)F)S(=O)(=O)C3CC4OC3C(c3ccc(O)cc3)=C4c3ccc(O)cc3)cc2)C(C)(C)C)cc1 (some centres not stated)
Marked response: 1.35 µM

Exam item: Also O=C(COc1cccc2c1C(=O)N(C1CCC(=O)NC1=O)C2=O)NCCCCCCCCOc1ccc(N(CC(F)(F)F)S(=O)(=O)C2CC3OC2C(c2ccc(O)cc2)=C3c2ccc(O)cc2)cc1 (configuration not stated) , if possible.
Marked response: > 100 µM

Exam item: Also O=C(COc1ccc(C2CCC(=O)NC2=O)cc1)NCCCCCCNC(=O)COc1ccc(N(CC(F)(F)F)S(=O)(=O)C2CC3OC2C(c2ccc(O)cc2)=C3c2ccc(O)cc2)cc1 (configuration not stated) , if possible.
Marked response: > 30 µM

Exam item: Also COc1ccc(N(CC(F)(F)F)S(=O)(=O)C2CC3OC2C(c2ccc(OCCCCCC(=O)N[C@H](C(=O)N4C[C@H](O)C[C@H]4C(=O)N[C@@H](C)c4ccc(-c5scnc5C)cc4)C(C)(C)C)cc2)=C3c2ccc(O)cc2)cc1 (some centres not stated) , if possible.
Marked response: > 100 µM

Exam item: Also O=C(COc1cccc2c1C(=O)N(C1CCC(=O)NC1=O)C2=O)NCCCCOc1ccc(N(CC(F)(F)F)S(=O)(=O)C2CC3OC2C(c2ccc(O)cc2)=C3c2ccc(O)cc2)cc1 (configuration not stated) , if possible.
Marked response: > 100 µM

Exam item: Also CCN(c1ccc(OCCCCCCCCC(=O)N[C@H](C(=O)N2C[C@H](O)C[C@H]2C(=O)NCc2ccc(-c3scnc3C)cc2)C(C)(C)C)cc1)S(=O)(=O)C1CC2OC1C(c1ccc(O)cc1)=C2c1ccc(O)cc1 (some centres not stated) , if possible.
Marked response: > 100 µM

Exam item: Also CCN(c1ccc(OCCCCCCC(=O)N[C@H](C(=O)N2C[C@H](O)C[C@H]2C(=O)N[C@@H](C)c2ccc(-c3scnc3C)cc2)C(C)(C)C)cc1)S(=O)(=O)C1CC2OC1C(c1ccc(O)cc1)=C2c1ccc(O)cc1 (some centres not stated) , if possible.
Marked response: > 100 µM

Exam item: Also Cc1ncsc1-c1ccc([C@H](C)NC(=O)[C@@H]2C[C@@H](O)CN2C(=O)[C@@H](NC(=O)CCCCCOc2ccc(N(CC(F)(F)F)S(=O)(=O)C3CC4OC3C(c3ccc(O)cc3)=C4c3ccc(O)cc3)cc2)C(C)(C)C)cc1 (some centres not stated) , if possible.
Marked response: 7.69 µM

Exam item: Also CCN(c1ccc(OCCCCC(=O)N[C@H](C(=O)N2C[C@H](O)C[C@H]2C(=O)NCc2ccc(-c3scnc3C)cc2)C(C)(C)C)cc1)S(=O)(=O)C1CC2OC1C(c1ccc(O)cc1)=C2c1ccc(O)cc1 (some centres not stated) , if possible.
Marked response: 1.03 µM

Exam item: Also O=C(COc1ccc(C2CCC(=O)NC2=O)cc1)NCCNC(=O)COc1ccc(N(CC(F)(F)F)S(=O)(=O)C2CC3OC2C(c2ccc(O)cc2)=C3c2ccc(O)cc2)cc1 (configuration not stated) , if possible.
Marked response: 13.7 µM

Exam item: Also CCN(c1ccc(OCCCCCCCC(=O)N[C@H](C(=O)N2C[C@H](O)C[C@H]2C(=O)NCc2ccc(-c3scnc3C)cc2)C(C)(C)C)cc1)S(=O)(=O)C1CC2OC1C(c1ccc(O)cc1)=C2c1ccc(O)cc1 (some centres not stated) , if possible.
Marked response: > 100 µM

Exam item: Also COc1ccc(N(CC(F)(F)F)S(=O)(=O)C2CC3OC2C(c2ccc(OCCCCCC(=O)N[C@H](C(=O)N4C[C@H](O)C[C@H]4C(=O)NCc4ccc(-c5scnc5C)cc4)C(C)(C)C)cc2)=C3c2ccc(O)cc2)cc1 (some centres not stated) , if possible.
Marked response: > 100 µM

Exam item: Also CCN(c1ccc(OCCCCC(=O)N[C@H](C(=O)N2C[C@H](O)C[C@H]2C(=O)N[C@@H](C)c2ccc(-c3scnc3C)cc2)C(C)(C)C)cc1)S(=O)(=O)C1CC2OC1C(c1ccc(O)cc1)=C2c1ccc(O)cc1 (some centres not stated) , if possible.
Marked response: 2.4 µM

Exam item: Also CCN(c1ccc(OCCCCCC(=O)N[C@H](C(=O)N2C[C@H](O)C[C@H]2C(=O)NCc2ccc(-c3scnc3C)cc2)C(C)(C)C)cc1)S(=O)(=O)C1CC2OC1C(c1ccc(O)cc1)=C2c1ccc(O)cc1 (some centres not stated) , if possible.
Marked response: 5.17 µM

Exam item: Also CCN(c1ccc(OCCCCCCCCCC(=O)N[C@H](C(=O)N2C[C@H](O)C[C@H]2C(=O)NCc2ccc(-c3scnc3C)cc2)C(C)(C)C)cc1)S(=O)(=O)C1CC2OC1C(c1ccc(O)cc1)=C2c1ccc(O)cc1 (some centres not stated) , if possible.
Marked response: > 100 µM

Exam item: Also O=C(COc1ccc(C2CCC(=O)NC2=O)cc1)NCCCCNC(=O)COc1ccc(N(CC(F)(F)F)S(=O)(=O)C2CC3OC2C(c2ccc(O)cc2)=C3c2ccc(O)cc2)cc1 (configuration not stated) , if possible.
Marked response: 9.45 µM

Exam item: Also CCN(c1ccc(OCCCCCCC(=O)N[C@H](C(=O)N2C[C@H](O)C[C@H]2C(=O)NCc2ccc(-c3scnc3C)cc2)C(C)(C)C)cc1)S(=O)(=O)C1CC2OC1C(c1ccc(O)cc1)=C2c1ccc(O)cc1 (some centres not stated) , if possible.
Marked response: > 100 µM

Exam item: Also CCN(c1ccc(OCCCCCC(=O)N[C@H](C(=O)N2C[C@H](O)C[C@H]2C(=O)N[C@@H](C)c2ccc(-c3scnc3C)cc2)C(C)(C)C)cc1)S(=O)(=O)C1CC2OC1C(c1ccc(O)cc1)=C2c1ccc(O)cc1 (some centres not stated) , if possible.
Marked response: > 100 µM

Exam item: Also O=C(COc1cccc2c1C(=O)N(C1CCC(=O)NC1=O)C2=O)NCCCCCCOc1ccc(N(CC(F)(F)F)S(=O)(=O)C2CC3OC2C(c2ccc(O)cc2)=C3c2ccc(O)cc2)cc1 (configuration not stated) , if possible.
Marked response: > 100 µM

Exam item: Also Cc1ncsc1-c1ccc([C@H](C)NC(=O)[C@@H]2C[C@H](O)CN2C(=O)[C@@H](NC(=O)CCCCCOc2ccc(N(CC(F)(F)F)S(=O)(=O)C3CC4OC3C(c3ccc(O)cc3)=C4c3ccc(O)cc3)cc2)C(C)(C)C)cc1 (some centres not stated) , if possible.
Marked response: > 100 µM

Exam item: Also CCN(c1ccc(OCCCCCC(=O)N[C@H](C(=O)N2C[C@@H](O)C[C@H]2C(=O)N[C@@H](C)c2ccc(-c3scnc3C)cc2)C(C)(C)C)cc1)S(=O)(=O)C1CC2OC1C(c1ccc(O)cc1)=C2c1ccc(O)cc1 (some centres not stated) , if possible.
Marked response: > 100 µM

Exam item: Also CCN(c1ccc(OCCCCCC(=O)Nc2cccc3c2C(=O)N(C2CCC(=O)NC2=O)C3=O)cc1)S(=O)(=O)C1CC2OC1C(c1ccc(O)cc1)=C2c1ccc(O)cc1 (configuration not stated) , if possible.
Marked response: > 100 µM

---

# procedureText: Selectivity ratio of relative binding affinity for ERalpha (unknown origin) to relative binding affinity to ERbeta (unknown origin)
Selectivity ratio vs 1: at or above is Met, below is Not met.

Exam item: Hi, just wondering whether CCN(c1ccc(OCCCCC(=O)N[C@H](C(=O)N2C[C@H](O)C[C@H]2C(=O)NCc2ccc(-c3scnc3C)cc2)C(C)(C)C)cc1)S(=O)(=O)C1CC2OC1C(c1ccc(O)cc1)=C2c1ccc(O)cc1 (stereo not given in full) shows Selectivity ratio of 1 or higher.
Marked response: Met

Exam item: Also Cc1ncsc1-c1ccc(CNC(=O)[C@@H]2C[C@@H](O)CN2C(=O)[C@@H](NC(=O)CCCCCOc2ccc(N(CC(F)(F)F)S(=O)(=O)C3CC4OC3C(c3ccc(O)cc3)=C4c3ccc(O)cc3)cc2)C(C)(C)C)cc1 (stereo not given in full) , if possible.
Marked response: Met

Exam item: Also CCN(c1ccc(OCCCCCCC(=O)N[C@H](C(=O)N2C[C@H](O)C[C@H]2C(=O)NCc2ccc(-c3scnc3C)cc2)C(C)(C)C)cc1)S(=O)(=O)C1CC2OC1C(c1ccc(O)cc1)=C2c1ccc(O)cc1 (stereo not given in full) , if possible.
Marked response: Met

Exam item: Also O=C(COc1ccc(C2CCC(=O)NC2=O)cc1)NCCCCNC(=O)COc1ccc(N(CC(F)(F)F)S(=O)(=O)C2CC3OC2C(c2ccc(O)cc2)=C3c2ccc(O)cc2)cc1 (stereo not given) , if possible.
Marked response: Not met

Exam item: Also O=C(COc1cccc2c1C(=O)N(C1CCC(=O)NC1=O)C2=O)NCCCCCCOc1ccc(N(CC(F)(F)F)S(=O)(=O)C2CC3OC2C(c2ccc(O)cc2)=C3c2ccc(O)cc2)cc1 (stereo not given) , if possible.
Marked response: Met
